# target or test system: GST-hCAR-LBD (Homo sapiens)
# Construct: purchased Life Technologies (Carlsbad, Calif.) or Invitrogen (Carlsbad, Calif.)
# Sequence (Q14994 109-352 limits assumed): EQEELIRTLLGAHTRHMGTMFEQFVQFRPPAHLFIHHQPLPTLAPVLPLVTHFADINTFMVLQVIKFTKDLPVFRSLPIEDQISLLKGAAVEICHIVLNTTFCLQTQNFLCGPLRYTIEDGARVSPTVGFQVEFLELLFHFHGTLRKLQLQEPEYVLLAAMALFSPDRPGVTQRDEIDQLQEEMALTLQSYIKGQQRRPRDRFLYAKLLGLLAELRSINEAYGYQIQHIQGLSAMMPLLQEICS
# protocol details: CoAct binding inverse agonist assay (LanthaScreen TR-FRET, fluorescent PGC-1α coactivator recruitment/repression)
# Type: biochemical
# setup conditions: Table 4; read-out: IC50
# Procedure: The effect of putative CAR ligands on the recruitment or repression of PGC-1α binding to hCAR was evaluated by using a LanthaScreen TR-FRET assay according to the manufacturer's instructions. […] The final DMSO concentration was 0.7% in all assay wells. […] The % Inhibition values were then plotted for individual chemicals. […]
assay metric: pIC50
// returns pIC50 (minus log10 of molar concentration), number only

See these solved cases before continuing.
CC(C)OC(=O)Nc1ccc2c(c1)N(C(=O)Cc1cccs1)c1ccccc1CC2: 7.68
CCOC(=O)Nc1ccc2c(c1)N(C(=O)CN(C(C)C)C(C)C)c1ccccc1CC2: 5.52
CCNCC(=O)N1c2ccccc2CCc2ccc(NC(=O)OCC)cc21 [Compound 71]: 4.55

Shifting focus to the compound that follows.
// "O=C(Nc1ccc2c(c1)N(C(=O)Cn1cccc1)c1ccccc1CC2)N1CCCCC1" : pIC50 value = 7.00
